Source listed as ChEMBL document CHEMBL1132487.

Measured pIC50, listed per entry for reference.
Tested on: T-24
Assay: Inhibition of human T24 cell proliferation
Type: functional, cell-based
pIC50: −log10 of the molar value.

INSERT INTO measurements (molecule, observable, endpoint_value) VALUES
  ('CCCCCCCCCCCC1OC(=O)[C@@H]2O[C@H]12 (stereo partly drawn)', 'pIC50', '< 3.70');

Check the records and state pIC50 for CCCCCCCCC(O)[C@H]1O[C@H]1C(N)=O (stereo partly drawn) < 3.66

Write down pIC50 measured for item CCCCCCCCCCCC(O)[C@H]1O[C@H]1C(=O)N(C)C (stereo partly drawn) 4.02
